Test system: gene editing with Cas9
Test: Screen of 322 new SSAP proteins, gene editing activity with Cas9 (Table 5)
Assay type: cell-based
Details: normalized
Cas9 with SSAP activity (normalized) by entry:
Observable: Cas9 with SSAP activity (normalized)

Molecule	Recorded result
SSAP_22: SEQ ID NO: 191 (protein) SNELMTKAVTYEVNNEEVKLSGQIVKQYLTSGQAVTDQEVTMFIQLCRYQHLNPFLNEAYLVKFNGKPAQIITSKEAFMKRAESNPNYAGLKAGCIVERNGELIYTEGAFTLKTDNILGAWADVIRKDRREPTHVEISMDEFSKSQATWKSMPATMIRKTAIVNALREAFPQDLGALYTEDDKNPNEATQTTYKQEPEVNTTKTADVLAKKFSGAPQIKSVENVQESEEESNNASNHGEATEPVNNVEEPTATAEVEQGQLL	4.337
SSAP_104: SEQ ID NO: 273; Salinicoccus albus (protein, listed as Salinicoccus albus) STNESLKNQVATNQKNEVSNGNKPKTIGDYIDQMAPAMAQALPKHMSVERMTRMATTVIRTTPQLKEADVASLLGAVMQSAQLGLEPGPMGHCYFLPFKNNKKGTTEVTFIIGYKGMIDLARRSGHISTIYAHAVYENDEFEYELGLHADLKHKPSEDERGAFKGAYAVAHFKDGGYQFEYMPKSDIDKRRSRSKAGNSNYSPWATDYEEMAKKTVIRHMWKYLPVSVEMQQAVAHDEGTGKDIKDVTPDEDSFVDMPEYIADVPAEGEGE	−0.744
SSAP_171: SEQ ID NO: 340; Streptomyces indicus (protein, listed as Streptomyces indicus) STDARNAVARRAETVGQVEQQAQQQPTLAQQIERMKPEMERALPKHMSADRMARIALTLIRKNPDLATCNTQSFLGALMTCSQLGFEPGSPTQEAYIIPRKGNAEFQLGYQGMVTLFYQHPMASSIKVETVRENDYFEHEEGLEERLVHRPCATGPRGRAIAYYSVARLINGGRTFKVMYPDEIEERRQKLPSKNSPAWRDNYDEMAKKTVLRNHFKALPKSAQLARALAHDGTVRTDATADVIDVAPEYPQRPELEAGPTA	−0.410
SSAP_78: SEQ ID NO: 247 (protein) RTDGTKEAGAAATAPTEGKAPAKAHKPADTIGAMIEKLKPQIERALPKHVTPDRMARMALTAIRNNPKLGQAEAVSLMGSIIQASQLGLEPNTPLGQCYIIPYNSKNGMQAQFQMGYKGIVDLAHRSGQYRQLTAHPVDEADEFRYSYGLNPDLVHVPAEKPSGKITHYYAVYHLTNGGFDFRVWSREKVEAHAKQYSKSFSSGPWQTNFDQMACKTVMIDLLRYAPKSVEIAKATSADNRTHTINPEDPDLNIDTIDGDFELEGEER	−0.295

Origin of measurements: patent US20250034594A1
